Exercise: state measured log10(GI50) for each of the compounds provided.
# System: HCT-15
Values below are the log10 of the recorded GI50, with µM as the unit.

NC(=O)NC1C(c2ccccc2)=C1c1ccccc1	1.13
Cc1ccccc1-n1c(N)c(-c2nc3ccccc3[nH]2)sc1=S	1.54
CC(=O)/C(=C/N1C(=O)CC(=O)NC1=S)C(=O)Nc1ccccc1C	1.63
CSc1nc(NC2CC2)c2c(n1)Sc1nc3ccccc3n1N=C2	1.45
Cc1cc(C)n(CN(CCCCO)Cn2nc(C)cc2C)n1	1.24

Below are some compounds; for each one, tell me its log10(GI50).
1. COC(=O)c1cc(C#N)[nH]c1-c1ccc(C)s1
2. S=c1[nH]c(Cl)cc2nc(Cl)cn12
3. Nc1nc(Cl)nc2c1ncn2C1CCC(COP(=O)(O)OP(=O)(O)OP(=O)(O)O)O1 (stereo not drawn)
4. O=C(C=P(c1ccccc1)(c1ccccc1)c1ccccc1)c1ccc(-c2ccc(F)cc2F)cc1
5. COc1cc(S(=O)(=O)N/N=C/c2cc(Br)c(O)c(OC)c2)c(OC)cc1NC(C)=O

1. 1.62
2. 0.67
3. 1.54
4. 0.36
5. 1.72
